- targetUnderTest: KRAS G12V (Homo sapiens (Human), UniProt P01116+P62937, G12V)
- Sequence (P01116-2 other isoform, or with tags, fused parts or gaps G12V): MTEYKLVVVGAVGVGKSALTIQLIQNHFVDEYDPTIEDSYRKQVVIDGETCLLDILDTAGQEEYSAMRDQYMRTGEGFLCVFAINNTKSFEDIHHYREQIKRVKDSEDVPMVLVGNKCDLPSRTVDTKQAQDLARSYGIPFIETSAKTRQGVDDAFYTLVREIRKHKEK
- Sequence (P62937 whole entry): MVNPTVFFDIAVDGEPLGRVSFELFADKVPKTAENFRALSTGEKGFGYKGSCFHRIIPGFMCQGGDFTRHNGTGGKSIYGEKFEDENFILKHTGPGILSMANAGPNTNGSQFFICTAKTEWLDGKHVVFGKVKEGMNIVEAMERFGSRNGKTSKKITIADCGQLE
- assayName: Ras-Raf (BRAF RBD) disruption / FRET / MOA assay, KRAS G12V
- Format: biochemical
- setupConditions: read-out: IC50* KRAS G12V FRET data
Parameter: IC50. Scope: all listed entries.

Observe how each entry below is paired with its result.
compound	targetUnderTest	IC50
C=CC(=O)N1CC[C@H](C(=O)N(CC)[C@H](C(=O)N[C@H]2Cc3cccc(c3)-c3ccc4c(c3)c(c(-c3cccnc3[C@H](C)OC)n4CC)CC(C)(C)COC(=O)[C@@H]3CCCN(N3)C2=O)C(C)C)C1 (atropisomer, axis not shown)	KRAS G12V (Homo sapiens (Human), UniProt P01116+P62937, G12V)	1 to 10 µM
CCn1c(-c2cccnc2[C@H](C)OC)c2c3cc(ccc31)-c1csc(n1)C[C@H](NC(=O)[C@H](C(C)C)N1CCC3(CCN(C(=O)C#CC(C)(C)N(C)C)CC3)C1=O)C(=O)N1CCC[C@H](N1)C(=O)OCC(C)(C)C2 (atropisomer, axis not shown)	KRAS G12V (Homo sapiens (Human), UniProt P01116+P62937, G12V)	> 10 µM

query: Dear colleague, I am looking for the recorded IC50 of the following compound: C=CC(=O)C1CC[C@H](C(=O)N(C)[C@H](C(=O)N[C@H]2Cc3cc(O)cc(c3)-c3ccc4c(c3)c(c(-c3cnn(C)c3[C@H](C)OC)n4CC)CC(C)(C)COC(=O)[C@@H]3CCCN(N3)C2=O)C(C)C)C1 (stereo partly shown)
result: 0.1 to 1 µM

query: Fill in: IC50 of C=CC(=O)N1CC[C@H](C(=O)N(C)[C@H](C(=O)N[C@H]2Cc3cc(F)cc(c3)-c3ccc4c(c3)c(c(-c3cccnc3[C@H](C)OC)n4CC)CC(C)(C)COC(=O)[C@@H]3CCCN(N3)C2=O)C(C)C)C1 (atropisomer, axis not shown) is ___
result: 1 to 10 µM
